- Measurement target: Sushi domains (SD1/2) protein of GABAB1a (GB1a)
- Sequence (Q9Z0U4 29-158): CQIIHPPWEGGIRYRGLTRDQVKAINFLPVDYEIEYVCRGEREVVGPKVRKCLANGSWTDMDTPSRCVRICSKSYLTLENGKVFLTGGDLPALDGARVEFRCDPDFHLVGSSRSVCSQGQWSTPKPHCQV
- Experiment description: FP competition vs TAMRA AJAP-1probe
Non-standard residues stand in square brackets, D forms with d. 4Pal = N[C@@H](Cc1ccncc1)C(=O)O
Parameter measured: Ki (nM)
Unit nM implied. Number only.

Some entries whose results are on file:
Binder | Measurement
Ac-ETEFIAWGPFGDED-NH2 | 40
Ac-EDDDWIDWGPTSDDDEAAAKRRRRRRRR-NH2 [17-RL-R8] | 139

Any idea what its Ki is? The binder is "Ac-RRRRREDDDWIDWGPTSDDD-NH2"
32

Return reported Ki; argument: Ac-EDDS[4Pal]VWWGGADTD-NH2 (SMILES CC(=O)N[C@@H](CCC(=O)O)C(=O)N[C@@H](CC(=O)O)C(=O)N[C@@H](CC(=O)O)C(=O)N[C@@H](CO)C(=O)N[C@@H](Cc1ccncc1)C(=O)N[C@H](C(=O)N[C@@H](Cc1c[nH]c2ccccc12)C(=O)N[C@@H](Cc1c[nH]c2ccccc12)C(=O)NCC(=O)NCC(=O)N[C@@H](C)C(=O)N[C@@H](CC(=O)O)C(=O)N[C@H](C(=O)N[C@@H](CC(=O)O)C(N)=O)[C@@H](C)O)C(C)C) [EDDS(4Pal)…]
424

GET /values?readout=Ki&item= "Ac-ETEYIAWGPTGDED-NH2"
18
